test system: MDA-MB-468 breast; assay: NCI-60 one-dose screen, 48 h; conditions: 10 µM unless noted
This is part of a sample that, as a whole, favours compounds with a hit. Of some 83,000 tested, about 20% had one in any assay. Active and inactive are the calls of the source. The calls were made as follows: active = growth percent below 10; inactive = the rest.
Select the matching outcome among yes for active, no for inactive

-- ask Please indicate how the test categorized `Cc1cc2c(-c3nc4ccccn4c3N)c(O)c(O)cc2c(O)c1-c1c(C)cc2c(-c3nc4ccccn4c3N)c(O)c(O)cc2c1O` .
-- reply yes

-- ask Please indicate how the test categorized `COc1cccc(C=Nc2cc(C(C)C)c(O)cc2C)c1O` .
-- reply no

-- ask Please indicate how the test categorized `COc1ccc(C(=S)N2CCN(c3cccc(Cl)c3)CC2)cc1` .
-- reply no

-- ask Please indicate how the test categorized `NC1=CC(=O)C(=O)c2ccccc21` .
-- reply no

-- ask Please indicate how the test categorized `O=[N+]([O-])c1ccc(-c2nnc(SCc3ccc(O)c4ncccc34)n2-c2ccccc2)cc1` .
-- reply no

-- ask Please indicate how the test categorized `O=C1C(=O)N(Cc2ccc(-c3ccccc3)cc2)c2ccc(OC(F)(F)F)cc21` .
-- reply no

-- ask Please indicate how the test categorized `CCCCOC(=O)c1c(C)[nH]c(/C=C2\N=C(c3ccc[nH]3)C=C2OC)c1C` .
-- reply yes

-- ask Please indicate how the test categorized CC(C)(C)n1nnnc1C(Nc1nccs1)c1cc2cccc3ccc4cccc1c4c32 (stereo not given) .
-- reply yes

---

test system: MDA-MB-468 breast; experiment: NCI-60 one-dose screen, 48 h; details: 10 µM unless noted
The panel holds about 83,000 compounds, 20% with a hit somewhere; the sample as a whole holds those more often. The source made the active and inactive calls. How the source made its calls: active means growth percent below 10; inactive means the rest.
Select the matching outcome among y = active, n = inactive

INSERT INTO results (compound, experimental_system, class_name) VALUES
  ('CCN(CC)CCC(CNc1ccnc2cc(Cl)ccc12)c1ccccc1 (stereo unspecified)', 'MDA-MB-468 breast', 'y'),
  ('Cc1ccc(-c2c3c(N)nc(-c4cccnc4)nc3nc3c2c(C)nn3-c2ccccc2)cc1', 'MDA-MB-468 breast', 'n'),
  ('O=C(/C=C\c1ccc(O)cc1)c1ccccc1', 'MDA-MB-468 breast', 'n'),
  ('CC12CCCCC1C(C(N)=O)C(=O)O2 (stereo unspecified)', 'MDA-MB-468 breast', 'n'),
  ('Cc1cc(C(=O)c2ccccc2)c(C)c2c1[nH]c1ccc(Cl)cc12', 'MDA-MB-468 breast', 'y');

-- ask Please indicate how the test categorized Nc1c(C(=O)Nc2ccncc2)sc2nc3c(cc12)C(O)CCC3 (stereo unspecified) .
-- reply n

-- ask Please indicate how the test categorized `Clc1cc(Cl)c(OCC#CI)cc1Cl` .
-- reply y

-- ask Please indicate how the test categorized `CN(C)CCOC(=O)Nc1ccc(Cc2ccc(NC(=O)OCCN(C)C)cc2)cc1` .
-- reply n

-- ask Please indicate how the test categorized `c1ccc2c(-c3nc(N4CCOCC4)c4c5c(sc4n3)CCCCCC5)cccc2c1` .
-- reply n

-- ask Please indicate how the test categorized `CCOC(=O)c1cnc2ccc(Cl)cc2c1NCCCN(C)C` .
-- reply y

-- ask Please indicate how the test categorized `COc1ccc(-c2nc(SCC(C)C)nc(N/N=C\c3ccc(F)cc3)c2C#N)cc1` .
-- reply n

-- ask Please indicate how the test categorized `CC(=O)[C@H]1CC[C@]2(C)[C@@H]1CC[C@@H]1[C@@]3(C)C/C(=C/c4cccnc4)C(=O)C(C)(C)[C@@H]3CC[C@]12C` .
-- reply n

---

tested on: MDA-MB-468 breast; experiment: NCI-60 one-dose screen, 48 h; conditions: 10 µM unless noted
The panel holds about 83,000 compounds, 20% with a hit somewhere; the sample as a whole holds those more often. The source made the active and inactive calls. How the source made its calls: active means growth percent below 10; inactive means the rest.
Select the matching outcome among active, inactive

Below, 5 compounds whose answers are already recorded.
INSERT INTO measurements (compound, class_name) VALUES
  ('CN(C)C(=O)c1cc2cnc(Nc3ccc(-c4csc5c(=S)cc(N6CCOCC6)oc45)cc3)nc2n1C1CCCC1', 'active'),
  ('COc1nc(N)nc2c1ncn2C1OC(CO)CC1O (stereo unspecified)', 'inactive'),
  ('Cc1ccc(S(=O)(=O)OCC#CCOS(=O)(=O)c2ccc(C)cc2)cc1', 'active'),
  ('COCCn1c(Nc2ccc(C(=O)NO)cc2)nc2ccccc21', 'inactive'),
  ('COc1cccc(-c2cn3nc(-c4cn(C)c5ccccc45)sc3n2)c1', 'inactive');

Okay, next one:
-- ask Please indicate how the test categorized `O=c1c2cc(F)cc(Cl)c2sc2c(Cl)nc3ccccc3c12` .
-- reply inactive

---

tested on: MDA-MB-468 breast; test: NCI-60 one-dose screen, 48 h; details: 10 µM unless noted
Compounds without any hit were thinned out: in the full panel of roughly 83,000, 20% have a hit. Calls of active or inactive are those of the source. How the source made its calls: active means growth percent below 10; inactive means the rest.
Select the matching outcome among active, inactive

Below, 5 compounds whose answers are already recorded.
INSERT INTO results (compound, experimental_system, class_name) VALUES
  ('O=C1Cc2c(sc3c(F)cccc23)C(c2ccccc2[N+](=O)[O-])N1 (stereo unspecified)', 'MDA-MB-468 breast', 'inactive'),
  ('COc1cccc(/C=C/C(=O)Nc2cc(OC)c3c(c2)OCO3)c1', 'MDA-MB-468 breast', 'inactive'),
  ('CCOc1nc(-c2ccccc2)cc2c(O)c(C(=O)n3nc(C)cc3C)[nH]c(=O)c12', 'MDA-MB-468 breast', 'inactive'),
  ('CCCCC1Nc2nc(SC)n(C)c(=O)c2CN(Cc2ccccc2)C1=O (stereo unspecified)', 'MDA-MB-468 breast', 'inactive'),
  ('CCOC(=O)c1ccoc1', 'MDA-MB-468 breast', 'inactive');

-- ask Please indicate how the test categorized `C=C1[C@@H](O)C[C@H]2C(C)(C)C[C@H](Cl)C[C@]2(C)[C@H]1C[C@H](O)[C@H]1CC(=O)NC1=O` .
-- reply active

-- ask Please indicate how the test categorized `COc1cc(OC)c(/C=C/C(=O)c2c(N)cc(OC)cc2OC)c(OC)c1` .
-- reply active

-- ask Please indicate how the test categorized `O=C1Nc2ccc(F)cc2/C1=C\c1c(-c2ccccc2)nc2ccccn12` .
-- reply inactive

-- ask Please indicate how the test categorized O=C(O)CS(=O)c1ccc(Cl)cc1 (stereo unspecified) .
-- reply inactive

-- ask Please indicate how the test categorized Cc1nc2sc(C(=O)Nc3cccc4ccccc34)c(N)c2cc1C(O)c1ccccc1 (stereo unspecified) .
-- reply inactive

-- ask Please indicate how the test categorized COC(=O)C1=C(C(=O)Nc2cccnc2)C2OC1(C(Cc1ccccc1)Oc1ccccc1)C1OC21 (stereo unspecified) .
-- reply active

-- ask Please indicate how the test categorized Nc1ccccc1SC1CC(=O)N(c2ccc(I)cc2)C1=O (stereo unspecified) .
-- reply inactive

-- ask Please indicate how the test categorized COc1c(N2CC3CCCNC3C2)c(F)cc2c(=O)c(C(=O)N/N=C/c3ccc(N(C)C)cc3)cn(C3CC3)c12 (stereo unspecified) .
-- reply inactive

-- ask Please indicate how the test categorized `Nc1ccc(NC(=O)c2ccccc2)c2c1C(=O)c1ccccc1C2=O` .
-- reply inactive

-- ask Please indicate how the test categorized `COc1ccc(-c2cnc3c(-c4cccc5cnccc45)cnn3c2)cc1` .
-- reply inactive

---

system: MDA-MB-468 breast; test: NCI-60 one-dose screen, 48 h; conditions: 10 µM unless noted
About 83,000 compounds went through this panel and 20% of them were active in at least one assay; those are over-represented in the sample as a whole. Calls of active or inactive are those of the source. How the source made its calls: active means growth percent below 10; inactive means the rest.
Select the matching outcome among Y = active, N = inactive

Below, 5 compounds whose answers are already recorded.
INSERT INTO measurements (compound, experimental_system, class_name) VALUES
  ('CN(C)[C@@H]1C(=O)C(C(N)=O)=C(O)[C@@]2(O)C(=O)C3=C(O)c4c(O)cc(CN5CCc6ccccc6C5)c(Cl)c4C[C@H]3C[C@@H]12', 'MDA-MB-468 breast', 'Y'),
  ('CNC(=O)c1cc(Oc2ccc3nc(NC(=O)c4cc(C(F)(F)F)cc(C(F)(F)F)c4)sc3c2)ccn1', 'MDA-MB-468 breast', 'N'),
  ('COC(=O)c1ccc(C)cc1', 'MDA-MB-468 breast', 'N'),
  ('Cn1cc(-c2nc(-c3c[nH]c4ccccc34)cs2)c2cccnc21', 'MDA-MB-468 breast', 'Y'),
  ('CCC(C)[C@H]1OC(=O)[C@H](C(C)C)N(C)C(=O)[C@@H](C(C)C)OC(=O)[C@H](C(C)C)N(C)C(=O)[C@@H](C(C)CC)OC(=O)[C@H](C(C)C)N(C)C1=O (stereo partly drawn)', 'MDA-MB-468 breast', 'Y');

-- ask Please indicate how the test categorized `COCCc1n(Cc2ccc3ccccc3c2)c2ccccc2[n+]1Cc1ccc2ccccc2c1` .
-- reply Y

-- ask Please indicate how the test categorized `COC(=O)c1ccc(NC2=C(Cl)C(=O)c3nc(C)ccc3C2=O)cc1` .
-- reply N

-- ask Please indicate how the test categorized CCC1=Cc2cc(OC)ccc2OC12C=Cc1cc(OC)ccc1O2 (stereo not drawn) .
-- reply N
